Target: P2Y purinoceptor 12 (Homo sapiens, UniProt Q9H244)
Sequence (Q9H244 whole entry): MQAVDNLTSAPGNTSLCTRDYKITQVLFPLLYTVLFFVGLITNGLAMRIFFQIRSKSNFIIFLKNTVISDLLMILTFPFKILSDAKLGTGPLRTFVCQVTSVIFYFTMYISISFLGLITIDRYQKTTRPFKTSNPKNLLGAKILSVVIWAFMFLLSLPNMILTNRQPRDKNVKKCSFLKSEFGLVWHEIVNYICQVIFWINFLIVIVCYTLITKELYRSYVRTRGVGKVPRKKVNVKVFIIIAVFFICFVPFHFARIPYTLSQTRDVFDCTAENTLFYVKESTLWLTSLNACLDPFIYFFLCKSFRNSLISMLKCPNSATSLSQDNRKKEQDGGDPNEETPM
Assay: Displacement of [3H]-2MesADP from recombinant human P2Y12 transfected in HEK cell membrane assessed as inhibition constant
Format: cell membranes
measure: Ki (nM)
Give bare numbers, in nM.

**Q:** Item CSc1nc(N)c2ncn([C@@H]3O[C@H](COP(=O)(O)OP(=O)(O)O)[C@@H](O)[C@H]3O)c2n1 has what recorded Ki?
**A:** 32.1

meta.source: ChEMBL document CHEMBL5104116
